test system: Rattus norvegicus; assay: The compound was tested for hyperexcitability in rat at a dose of 80 mg/Kg; type: functional
measured-property: Possible response (%)
Respond with the bare value in %.

Completed entries (count: 2):
CCCCCC(C)C(C)c1cc(O)c2c(c1)OC(C)(C)C1=C2CN(CC(=O)Nc2ccccc2)CC1 (stereo unspecified)
0
CCCCCC(C)C(C)c1cc(O)c2c(c1)OC(C)(C)C1=C2CN(CC(=O)NC(=O)Nc2ccccc2)CC1 (stereo unspecified)
0

Ask | I'd like to know its Possible response. The compound in question is CCCCCC(C)C(C)c1cc(O)c2c(c1)OC(C)(C)C1=C2CN(CC(=O)NC(=O)NC)CC1 (stereo unspecified)
Reply | 81

Ask | CC(CCCc1ccc(F)cc1)c1cc(O)c2c(c1)OC(C)(C)C1=C2CN(CC(=O)N(C)C)CC1 (stereo unspecified) ?
Reply | 69

Ask | And then CCCCCC(C)C(C)c1cc(O)c2c(c1)OC(C)(C)C1=C2CN(CCC(N)=O)CC1 (stereo unspecified) , what is it?
Reply | 67

Ask | Try this compound too: CCCCCC(C)C(C)c1cc(O)c2c(c1)OC(C)(C)C1=C2CN(CC(N)=O)CC1 (stereo unspecified)
Reply | 98

Ask | How about CCCCCC(C)C(C)c1cc(O)c2c(c1)OC(C)(C)C1=C2CN(CC(=O)N(C)C)CC1 (stereo unspecified) ?
Reply | 69

Ask | Same for CNC(=O)CN1CCC2=C(C1)c1c(O)cc(C(C)CCCc3ccc(F)cc3)cc1OC2(C)C (stereo unspecified)
Reply | 100

Ask | Repeat with CCCCCC(C)C(C)c1cc(O)c2c(c1)OC(C)(C)C1=C2CN(C(C)C(=O)NC(N)=O)CC1 (stereo unspecified)
Reply | 77

Ask | Could you do the same for CC(CCCc1ccc(F)cc1)c1cc(O)c2c(c1)OC(C)(C)C1=C2CN(CC(=O)NCC(N)=O)CC1 (stereo unspecified) , please?
Reply | 0

Ask | And what about the compound CC(CCCc1ccc(F)cc1)c1cc(O)c2c(c1)OC(C)(C)C1=C2CN(CC(=O)NC(N)=O)CC1 (stereo unspecified) ?
Reply | 100

* * *

organism: Mus musculus; experiment: The compound was tested for analgesic activity using writhing (W) test in mouse; format: functional
measured-property: ED50 (mg/kg)
Give just the number in mg/kg; leave the unit off.

C#CCN1CCC2=C(C1)c1c(O)cc(C(C)C(C)CCCCC)cc1OC2(C)C (stereo not given)
4.3
C#CCN1CCC2=C(C1)c1c(O)cc(C(C)CCCc3ccc(F)cc3)cc1OC2(C)C (stereo not given)
5.3
CCCCCc1cc(O)c2c(c1)OC(C)(C)[C@@H]1CCC(C)=C[C@@H]21 [DRONABINOL]
43
CCCCCC(C)C(C)c1cc(O)c2c(c1)OC(C)(C)C1=C2CN(CC(=O)NC)CC1 (stereo not given)
5.1

Query compound follows.
Ask | Find the recorded ED50 belonging to CC(CCCc1ccc(F)cc1)c1cc(O)c2c(c1)OC(C)(C)C1=C2CN(CC(=O)NC(N)=O)CC1 (stereo not given) and report it.
Reply | 0.7

* * *

Catalogue of Decrease in activity values
tested on: Rattus norvegicus; assay: The compound was tested for serotonin antagonism in rat at a dose of 20 mg/Kg; type: functional
Express it in %; write the number only.

Observe how each entry below is paired with its result.
CCCCCC(C)C(C)c1cc(O)c2c(c1)OC(C)(C)C1=C2CN(CC(=O)OCC)CC1 (configuration not stated)
56
CCCCCC(C)C(C)c1cc(O)c2c(c1)OC(C)(C)C1=C2CN(CC(=O)NC(=O)NC)CC1 (configuration not stated)
50
CC(CCCc1ccc(F)cc1)c1cc(O)c2c(c1)OC(C)(C)C1=C2CN(CC(=O)NCC(N)=O)CC1 (configuration not stated)
-10
CCCCCC(C)C(C)c1cc(O)c2c(c1)OC(C)(C)C1=C2CN(C(C)C(=O)NC(N)=O)CC1 (configuration not stated)
43

Ask | Decrease in activity of CCCCCC(C)C(C)c1cc(O)c2c(c1)OC(C)(C)C1=C2CN(CCC(N)=O)CC1 (configuration not stated) on Rattus norvegicus?
Reply | -13

Ask | And CCCCCC(C)C(C)c1cc(O)c2c(c1)OC(C)(C)C1=C2CN(CC(=O)NC(=O)Nc2ccccc2)CC1 (configuration not stated) ?
Reply | -15

Ask | Repeat with CCCCCC(C)C(C)c1cc(O)c2c(c1)OC(C)(C)C1=C2CN(CC(=O)NC)CC1 (configuration not stated)
Reply | 21

Ask | // query: C#CCN1CCC2=C(C1)c1c(O)cc(C(C)C(C)CCCCC)cc1OC2(C)C (configuration not stated)
Reply | 84

Ask | Please answer likewise for CC(CCCc1ccc(F)cc1)c1cc(O)c2c(c1)OC(C)(C)C1=C2CN(CC(=O)N(C)C)CC1 (configuration not stated)
Reply | 12

Ask | Now consider CCCCCC(C)C(C)c1cc(O)c2c(c1)OC(C)(C)C1=C2CN(CC(N)=O)CC1 (configuration not stated) .
Reply | 83

Ask | CNC(=O)CN1CCC2=C(C1)c1c(O)cc(C(C)CCCc3ccc(F)cc3)cc1OC2(C)C (configuration not stated) ?
Reply | 63

Ask | Field entry: CCCCCC(C)C(C)c1cc(O)c2c(c1)OC(C)(C)C1=C2CN(CC(=O)Nc2ccccc2)CC1 (configuration not stated)
Reply | -28
